# Tested on: RPMI-8226
# procedureDetails: NCI tumour cell line growth inhibition, 48 h
Activity calls are given as the source filed them. Rule as the data show it: active = GI50 up to about 1.1 µM and inactive = higher.
Just give me one of these, please: 1 = active, -1 = inactive

Query: For C[C@H]1[C@H]2[C@H](C[C@@]3(C)C4=CC[C@H]5C(C)(C)[C@@H](OC6OCC(O)C(O)C6O)CC[C@@]56C[C@@]46CC[C@]23C)O[C@@]2(O)[C@@H]1OC(C)(C)[C@H]2O (stereo partly drawn) , what call appears in the results of this test?
Result: -1

Query: Dear all, I need the recorded test outcome for C=C1C(OC(=O)/C=C/c2ccccc2)CC(OC(C)=O)C2(C)C1CC1CC(OC(C)=O)C(C)=C(C(OC(C)=O)C2OC(C)=O)C1(C)C (stereo not drawn) , thank you.
Result: -1

Query: Please state the recorded outcome for this compound: CN(/N=C\c1ccnc2ccccc12)c1ccccc1
Result: -1

Query: Test call, this compound: O=C(O/N=C1/CCCC/C1=C\c1ccccc1)c1ccccc1
Result: -1

Query: Call for entry O=C(NNc1ccnc2cc(Cl)ccc12)/C(=C\c1ccccc1Cl)NC(=O)c1ccccc1 :
Result: -1

Query: Recorded test outcome, item [N-]=[N+]=NC1C(O)C(CO)OC1n1ccc(N)nc1=O (stereo not drawn)
Result: -1

Query: Write down the call the test reported for this compound. Item: CCOC(=O)/C=C(/CN1C(=O)c2ccccc2C1=O)c1ccccc1
Result: -1

Query: Please let me know the test result on file for CN1CCN(c2ccc([N+](=O)[O-])c3no[n+]([O-])c23)CC1 .
Result: 1

Query: // outcome(item) with item = CC(=O)OCC1=C(C)C(OC(=O)C(OC(C)=O)[C@@H](NC(=O)c2ccccc2)c2ccccc2)CCC1(C)C (stereo partly drawn)
Result: -1

Query: Each compound tested received a call. Report the one for C1=CC2(C=CC13O[C@H](C1CCCCC1)[C@@H](C1CCCCC1)O3)O[C@H](C1CCCCC1)[C@@H](C1CCCCC1)O2 .
Result: -1

Query: // outcome(item) with item = CSC1C=C(C(C)C)CCC1(C)SC (stereo not drawn)
Result: -1

Query: Recorded test call requested for O=C1NC(=O)C(c2c[nH]c3ccccc23)=C1c1cn(C(c2ccccc2)(c2ccccc2)c2ccccc2)cn1
Result: -1

Query: Which outcome was entered for the compound CCOC(=O)C(NCc1cccc(C(F)(F)F)c1)(NC(=O)c1ccccc1)C(F)(F)F (stereo not drawn) in this test?
Result: -1

Query: Recorded test outcome, item CSc1nc(SC)c2c(C#N)n[nH]c2n1
Result: -1

Query: Write down the call the test reported for this compound. Item: CCN(CC)CCCC(C)Nc1cc(-c2ccccc2)nc2cc(OC)ccc12 (stereo not drawn)
Result: -1

Query: Hey, what did the test say about S=C(CSc1ccccc1)Nc1cccc2ccccc12 ?
Result: -1

Query: How was Cc1nc2cc(F)c(F)cc2[nH]c1=O classified in this test?
Result: -1

Query: Hello, I am checking results. What call was entered for CCOC(=O)CN1C(=O)NC(C)(c2ccccc2)C1=O (stereo not drawn) ?
Result: -1

Query: Test call for this compound, please: Oc1ccccc1/C=N/c1nc2cc3sc(/N=C/c4ccccc4O)nc3cc2s1
Result: -1

Query: Any idea what this test logged for CCCCc1c2c(nc3c1CCc1cc4cc5c(nc4nc1-3)-c1nc3c(c(CCCC)c1CC5)CCC/C3=C\c1ccccc1)/C(=C/c1ccccc1)CCC2 ?
Result: -1

Query: So what was the verdict on O=C(CC1(O)C(=O)Nc2c(Cl)ccc(Cl)c21)c1ccc(F)cc1 (stereo not drawn) in this test?
Result: -1

Query: Each compound tested received a call. Report the one for O=C1/C(=N/O)Cc2c(Br)ccc(Br)c21 .
Result: -1

Query: How was COc1cc2cc(C(=O)N3CC(CCl)c4c3cc(O)c3ccccc43)[nH]c2c(OC)c1OC (stereo not drawn) classified in this test?
Result: 1

Query: Any idea what this test logged for Cn1cnc(CCc2ccccc2)n1 ?
Result: -1

Query: Just curious, what result did CC1CCC/C1=C(/I)C(=O)c1ccccc1 (stereo not drawn) get here?
Result: -1

Query: Outcome logged for CCc1oc2ccccc2c1C(=O)c1cc(Br)c(O)c(Br)c1 [BENZBROMARONE] in this assay:
Result: -1

Query: For C[C@]12CCC(=O)[C@@H](CCC3=CC(=O)C=CC3=O)[C@@H]1CCC2=O , what call appears in the results of this test?
Result: -1

Query: Could you kindly confirm the outcome this assay logged for O=[N+]([O-])c1cc([N+](=O)[O-])c(Nn2c3ccccc3c3ccccc32)c([N+](=O)[O-])c1 ?
Result: 1

Query: Fill in: this test's call for CCn1c(-c2ccc(OC)cc2)nc2c1C(=O)c1ccccc1C2=O is ___
Result: -1

Query: How was CCCC1(NC(=O)C(F)(F)F)CC(OC)OC2COC(c3ccccc3)OC21 (stereo not drawn) classified in this test?
Result: -1

Query: Any idea what this test logged for CCOC(=O)CSc1nc(-c2ccccc2)c(C#N)c(=O)[nH]1 ?
Result: -1

Query: I would be grateful if you could indicate the recorded call for C=C(C)CCC1CCCCC(CN(C)C)C1=O (stereo not drawn) .
Result: -1

Query: Give the logged outcome of this assay for the following compound: CCOC(=O)c1s/c(=N\Nc2nc3ccccc3cc2C2OCCO2)n(Cc2ccccc2)c1C
Result: -1

Query: What is the recorded call for this compound in the test? Oc1cc(-c2cccc(OCc3ccccc3)c2)nc2cc3c(cc12)OCO3
Result: 1

Query: Lab log entry: CN(C)CCCNc1c2c(nc3ccc(Cl)cc13)CCCC2 — outcome as called in the assay?
Result: -1

Query: Which outcome did this test record for the compound Cc1cn(S(=O)(=O)c2ccccc2)c2c(OCc3ccccc3)cc([N+](=O)[O-])cc12 ?
Result: -1

Query: Assay outcome for CN(C)c1ccc(C2SCC(=O)N2NS(=O)(=O)c2cccc(C(=O)O)c2)cc1 (stereo not drawn) : what was it?
Result: -1

Query: // param item: Cc1cc(=O)oc2c(CNC(C(=O)O)C(C)O)c(O)ccc12 (stereo not drawn) ; yields the recorded call
Result: -1
